Molecular target: T1, Anti-CD28 Fab (SEQ ID NOs: 696, 697)
T1 construct: In the phage ELISA the Fab was biotinylated and captured on neutravidin coated plates
T1 sequence (VH, as listed by the source, chain 1 of 2): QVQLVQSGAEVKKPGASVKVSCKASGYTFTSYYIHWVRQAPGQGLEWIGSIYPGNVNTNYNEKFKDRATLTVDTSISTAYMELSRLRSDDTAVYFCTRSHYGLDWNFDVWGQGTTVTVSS
T1 sequence (VL, as listed by the source, chain 2 of 2): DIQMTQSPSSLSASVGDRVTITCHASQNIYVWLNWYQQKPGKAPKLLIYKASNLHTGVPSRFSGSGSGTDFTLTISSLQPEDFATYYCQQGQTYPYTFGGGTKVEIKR
Test: phage ELISA; captured anti-CD28 Fab pre-incubated with CD28 antigen as competitor, anti-M13 HRP;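 further: crude clonal phage supernatants added without washing after CD28 pre-incubation, bound phage detected with HRP anti-M13 antibody, reference wells got blocking buffer lacking CD28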
outcome_measure: Anti-CD28 Fab signal in the presence of CD28 (phage binding ELISA)
Answers are plain numbers.

# binder, experimental_result
records = [
    ("YCDGHAPEYIYKCL (Clonal phage of the Peptide-87 library, tested as crude phage supernatant; not shown: pIII of the bacteriophage to which the peptide is fused) [Phage-614]", 0.06),
    ("YCDGHSPLYIWKCL (Clonal phage of the Peptide-87 library, tested as crude phage supernatant; not shown: pIII of the bacteriophage to which the peptide is fused) [Phage-607]", 0.09),
    ("YCDGHLPEYMHKCL (Clonal phage of the Peptide-87 library, tested as crude phage supernatant; not shown: pIII of the bacteriophage to which the peptide is fused) [Phage-608]", 0.09),
]

Now look at this entry.
### Prompt # get_value(readout='Anti-CD28 Fab signal in the presence of CD28 (phage binding ELISA)', item= YCDGHAVEYMAKCL (Clonal phage of the Peptide-87 library, tested as crude phage supernatant; not shown: pIII of the bacteriophage to which the peptide is fused) [Phage-611] )
### Response 0.1

Where do the numbers come from? From patent US20260242478A1.
